# System: YFV-17D
# assay: microbe, parasite or virus in culture
# Assay type: cell-based, Yellow fever virus vaccine strain 17D
# condition.label: Yellow fever virus, read-out: YFV EC50
pEC50: −log10 of the molar value.
experimental.readout: pEC50

compound: CC1(O)[C@@H](O)[C@@H](CO)O[C@H]1n1cnc2c(=O)[nH]c(N)nc21 (stereo partly shown)
experimental.readout: pEC50
observed.value: 5.92

----------
# assay: Bioavailability assay in Cynomolgus monkeys
# Type: in vivo, Cynomolgus monkey
# condition.label: cynomolgus monkey, blood; Cynomolgus monkeys, PO 10 mg/kg

compound: CC1(O)[C@@H](O)[C@@H](CO)O[C@H]1n1cnc2c(=O)[nH]c(N)nc21 (stereo partly drawn) [β-D-2′-CH3-riboG]
Tmax: 2 h

----------
# Test system: HepG2 cells
# assay: Phosphorylation assay of nucleoside to active triphosphate
# Format: in vitro ADME
# condition.label: 10 μM [3H] labeled compound, 8 h
Recorded measurements of intracellular triphosphate level, one per entry
experimental.readout: intracellular triphosphate level (pmol/million cells)

line.notation: C[C@@]1(O)[C@H](O)[C@@H](COP(=O)(O)OP(=O)(O)OP(=O)(O)O)O[C@H]1n1ccc(=O)[nH]c1=O
assayed.system: HepG2 cells
experimental.readout: intracellular triphosphate level
units.symbol: pmol/million cells
observed.value: 1.57
--
line.notation: C[C@@]1(O)[C@H](O)[C@@H](COP(=O)(O)OP(=O)(O)OP(=O)(O)O)O[C@H]1n1ccc(N)nc1=O
assayed.system: HepG2 cells
experimental.readout: intracellular triphosphate level
units.symbol: pmol/million cells
observed.value: 9.76
--
line.notation: C[C@@]1(O)[C@H](O)[C@@H](COP(=O)(O)OP(=O)(O)OP(=O)(O)O)O[C@H]1n1cnc2c(=O)[nH]c(N)nc21
assayed.system: HepG2 cells
experimental.readout: intracellular triphosphate level
units.symbol: pmol/million cells
observed.value: 2.85
--
line.notation: C[C@@]1(O)[C@H](O)[C@@H](COP(=O)(O)OP(=O)(O)OP(=O)(O)O)O[C@H]1n1cnc2c(N)ncnc21
assayed.system: HepG2 cells
experimental.readout: intracellular triphosphate level
units.symbol: pmol/million cells
observed.value: 147

----------
# assay: Bioavailability assay in Cynomolgus monkeys
# Format: in vivo, Cynomolgus monkey
# condition.label: cynomolgus monkey, blood; Cynomolgus monkeys, IV 10 mg/kg

compound: CC1(O)[C@@H](O)[C@@H](CO)O[C@H]1n1cnc2c(=O)[nH]c(N)nc21 (stereo partly shown)
Tmax (min): 15

----------
# assay: in vitro
experimental.readout: CC50 (µM)

compound: C[C@@]1(n2cnc3c(N)ncnc32)O[C@H](CO)[C@H](O)C1O (some centres unmarked)
comparison.symbol: >
observed.value: 100

compound: CC1(O)[C@@H](O)[C@@H](CO)O[C@H]1n1cnc2c(N)ncnc21 (some centres unmarked)
comparison.symbol: =
observed.value: 75

----------
# Tested on: BVDV (strain NADL)
# assay: Cell Protection Assay (CPA)
# Format: cell-based, Bovine Viral Diarrhea virus
# condition.label: Bovine viral diarrhea virus isolates and strains, 96 h; MDBK cells infected with BVDV, 50% reduction of cytopathic effect, four days; read-out: EC50
Recorded measurements of EC50, one per entry
experimental.readout: EC50

compound: NC(=O)c1ncn([C@@H]2O[C@H](CO)[C@@H](O)[C@H]2O)n1 [Ribavirin, reference compound]
assayed.system: BVDV (strain NADL)
observed.value: > 3000 nM
//
compound: CC1(O)[C@@H](O)[C@@H](CO)O[C@H]1n1cnc2c(=O)[nH]c(N)nc21 (stereo partly drawn) [β-D-2′-CH3-riboG]
assayed.system: BVDV (strain NADL)
observed.value: 4000 nM
//
compound: CC1(O)[C@@H](O)[C@@H](CO)O[C@H]1n1cnc2c(N)ncnc21 (stereo partly drawn) [β-D-2′-CH3-riboA, 2′-C-methylriboadenine]
assayed.system: BVDV (strain NADL)
observed.value: 2000 nM

----------
# assay: Bioavailability assay in Cynomolgus monkeys
# Type: in vivo, Cynomolgus monkey
# condition.label: cynomolgus monkey, blood, iv, 10 mg/kg, IV Monkey 3, dose 20.72 mg (10 mg/kg)

compound: CC1(O)[C@@H](O)[C@@H](CO)O[C@H]1n1cnc2c(=O)[nH]c(N)nc21 (stereo partly shown)
AUC, ng·h/mL: 6080

----------
# System: PICO (Cosxackie B1 and Polio Sabin)
# assay: organism not typed
# Assay type: cell-based
# condition.label: Vero, read-out: Comparative Antiviral Activity EC50 PICO
pEC50: −log10 of the molar value.
experimental.readout: pEC50

molecule: CC1(O)[C@@H](O)[C@@H](CO)O[C@H]1n1cnc2c(N)ncnc21 (stereo partly drawn)
assayed.system: PICO (Cosxackie B1 and Polio Sabin)
comparison.symbol: =
observed.value: 5.30
--
molecule: C[C@@]1(n2cnc3c(N)ncnc32)O[C@H](CO)[C@H](O)C1O (stereo partly drawn)
assayed.system: PICO (Cosxackie B1 and Polio Sabin)
comparison.symbol: =
observed.value: 4.29
--
molecule: NC(=O)c1ncn([C@@H]2O[C@H](CO)[C@@H](O)[C@H]2O)n1 [Ribavirin, reference compound]
assayed.system: PICO (Cosxackie B1 and Polio Sabin)
comparison.symbol: <
observed.value: 4.52

----------
# assay: Bioavailability assay in Cynomolgus monkeys
# Type: in vivo, Cynomolgus monkey
# condition.label: cynomolgus monkey, blood, po, 10 mg/kg, Cynomolgus monkeys, PO 10 mg/kg
experimental.readout: AUC

molecule: CC1(O)[C@@H](O)[C@@H](CO)O[C@H]1n1cnc2c(=O)[nH]c(N)nc21 (stereo partly shown)
experimental.readout: AUC
observed.value: 1170 ng·h/mL

----------
# System: HepG2 cells
# assay: Phosphorylation assay of nucleoside to active triphosphate
# Assay type: in vitro ADME
# condition.label: 10 μM [3H] labeled compound, 48 h
Recorded measurements of intracellular triphosphate level, one per entry
experimental.readout: intracellular triphosphate level (pmol/million cells)

line.notation: C[C@@]1(O)[C@H](O)[C@@H](COP(=O)(O)OP(=O)(O)OP(=O)(O)O)O[C@H]1n1ccc(N)nc1=O
observed.value: 56.4

line.notation: C[C@@]1(O)[C@H](O)[C@@H](COP(=O)(O)OP(=O)(O)OP(=O)(O)O)O[C@H]1n1cnc2c(=O)[nH]c(N)nc21
observed.value: 6.26

line.notation: C[C@@]1(O)[C@H](O)[C@@H](COP(=O)(O)OP(=O)(O)OP(=O)(O)O)O[C@H]1n1ccc(=O)[nH]c1=O
observed.value: 9.42

line.notation: C[C@@]1(O)[C@H](O)[C@@H](COP(=O)(O)OP(=O)(O)OP(=O)(O)O)O[C@H]1n1cnc2c(N)ncnc21
observed.value: 288
